Examples of molecules with documented log P follow.
assay: logP by HPLC on reversed-phase column (EEC Directive 79/831 Annex V.A8); assay type: physicochemical; conditions: HPLC, C18, 40° C., 0.1% aqueous formic acid and acetonitrile
metric.name: log P

> print(dat)
                               smiles.entry  value.observed
1  CCN(C)C=Nc1cc(C)c(OCc2cc3c(cc2Cl)OCO3)cc1C            2.05
2      Cc1cc(OCc2ccccc2F)c(C)cc1N=CN1CCCCC1            2.09
3     Cc1cc(OCc2ccccc2Cl)c(C)cc1N=CN1CCCCC1            2.18
4  CCN(C)C=Nc1cc(C)c(OCc2ccc(Cl)c(C(F)(F)F)c2)cc1C            2.47
5   CCN(C)C=Nc1cc(C)c(OCc2ccccc2OC(F)F)cc1C            2.03
6        CCN(C)C=Nc1cc(C)c(OCc2ccccc2C)cc1C            2.06
7     CCN(C)C=Nc1cc(C)c(OCc2ccc(Br)cc2)cc1C            2.21
8  CCN(C)C=Nc1cc(C)c(OCc2c(C)cc(C)cc2C)cc1C            2.42
9   Cc1ccc(COc2cc(C)c(N=CN3CCCCC3)cc2C)cc1C            2.36
